- Assayed System: UniProtKB P19754
- Sequence (P19754 whole entry): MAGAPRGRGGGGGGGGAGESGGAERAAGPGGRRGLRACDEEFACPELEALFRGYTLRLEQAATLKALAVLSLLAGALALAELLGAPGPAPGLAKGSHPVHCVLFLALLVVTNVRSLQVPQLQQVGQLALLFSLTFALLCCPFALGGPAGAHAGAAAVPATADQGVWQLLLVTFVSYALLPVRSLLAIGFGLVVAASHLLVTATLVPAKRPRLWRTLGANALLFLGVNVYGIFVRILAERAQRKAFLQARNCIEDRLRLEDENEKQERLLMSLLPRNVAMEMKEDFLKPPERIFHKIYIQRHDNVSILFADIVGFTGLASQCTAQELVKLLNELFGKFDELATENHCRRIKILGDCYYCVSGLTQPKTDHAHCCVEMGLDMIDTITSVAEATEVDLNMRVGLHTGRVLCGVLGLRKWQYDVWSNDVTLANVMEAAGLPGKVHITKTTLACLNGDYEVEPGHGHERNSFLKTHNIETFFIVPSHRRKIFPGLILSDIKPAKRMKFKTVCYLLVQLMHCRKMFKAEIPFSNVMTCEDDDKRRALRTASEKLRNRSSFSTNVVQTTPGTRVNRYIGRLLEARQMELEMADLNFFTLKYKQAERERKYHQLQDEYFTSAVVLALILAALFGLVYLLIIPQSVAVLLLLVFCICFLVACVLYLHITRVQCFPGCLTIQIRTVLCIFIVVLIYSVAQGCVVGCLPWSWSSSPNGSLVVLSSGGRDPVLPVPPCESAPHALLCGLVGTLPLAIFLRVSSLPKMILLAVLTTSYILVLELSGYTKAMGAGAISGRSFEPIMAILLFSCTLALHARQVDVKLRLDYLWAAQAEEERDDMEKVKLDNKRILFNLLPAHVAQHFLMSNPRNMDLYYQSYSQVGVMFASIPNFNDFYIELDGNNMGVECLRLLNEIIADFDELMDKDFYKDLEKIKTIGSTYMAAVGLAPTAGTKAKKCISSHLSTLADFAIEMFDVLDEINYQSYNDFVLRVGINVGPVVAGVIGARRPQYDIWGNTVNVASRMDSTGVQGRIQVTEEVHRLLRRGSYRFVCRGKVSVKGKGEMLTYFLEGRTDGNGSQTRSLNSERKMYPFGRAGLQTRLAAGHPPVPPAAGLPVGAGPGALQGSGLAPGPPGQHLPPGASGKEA
- Protocol Text: AC activity assay in Sf9 membranes expressing recombinant AC1
- Format: biochemical, mammalian
pKi: −log10 of the molar value.
Measured Endpoint: pKi

// solved cases for pKi follow
CNc1ccccc1C(=O)O[C@H]1C[C@H](n2cnc3c(=O)[nH]c(N)nc32)O[C@@H]1COP(=O)(O)OP(=O)(O)OP(=O)(O)O [compound 2]	6.57
CNc1ccccc1C(=O)O[C@@H]1C[C@@H](COP(=O)(O)OP(=O)(O)OP(=O)(O)O)O[C@H]1n1cnc2c(N)ncnc21 [compound 7]	6.33

1. CNc1ccccc1C(=O)O[C@@H]1C[C@@H](COP(=O)(O)OP(=O)(O)OP(=O)(O)O)O[C@H]1n1cnc2c(=O)[nH]c(N)nc21 [compound 3]
2. CNc1ccccc1C(=O)O[C@H]1C[C@H](n2cnc3c(N)ncnc32)O[C@@H]1COP(=O)(O)OP(=O)(O)OP(=O)(O)O [compound 6]
Given the listed items, does 1 or 2 have the lesser reported pKi? Give the label of your selection.
1
(1: 5.74, 2: 6.49)
